Just for reference, patent US20210070748A1 is where these values come from.

biological target: ITK (Homo sapiens, UniProt Q08881); assay: Inhibition of a panel of kinases, in vitro HotSpot kinase assay: ITK; assay type: biochemical; conditions: Table 13, A compounds; 1 μM ATP
Sequence (Q08881 whole entry): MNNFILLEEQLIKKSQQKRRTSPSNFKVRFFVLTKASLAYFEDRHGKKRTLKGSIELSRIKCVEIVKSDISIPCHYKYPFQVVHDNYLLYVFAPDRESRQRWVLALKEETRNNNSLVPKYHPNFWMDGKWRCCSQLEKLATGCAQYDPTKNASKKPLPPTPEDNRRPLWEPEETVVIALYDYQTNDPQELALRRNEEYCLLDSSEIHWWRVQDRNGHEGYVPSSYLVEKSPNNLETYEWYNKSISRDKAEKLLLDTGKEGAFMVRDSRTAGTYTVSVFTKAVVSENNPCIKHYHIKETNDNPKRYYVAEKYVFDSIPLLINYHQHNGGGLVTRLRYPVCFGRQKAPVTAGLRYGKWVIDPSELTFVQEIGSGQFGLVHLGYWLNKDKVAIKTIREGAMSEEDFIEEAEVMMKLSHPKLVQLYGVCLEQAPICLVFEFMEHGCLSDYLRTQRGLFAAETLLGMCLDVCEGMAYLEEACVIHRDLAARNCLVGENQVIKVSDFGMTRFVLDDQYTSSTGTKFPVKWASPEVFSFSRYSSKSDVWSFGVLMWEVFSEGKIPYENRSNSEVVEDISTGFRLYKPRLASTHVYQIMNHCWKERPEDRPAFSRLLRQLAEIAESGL
Property name: IC50

Here is how some molecules turned out for IC50.
C[C@@H]1[C@H](NC(=O)c2ccc(C3CC3)cc2F)CCCN1c1cnc(C(N)=O)c(Nc2ccc(N3CCN(C)CC3)c(F)c2)n1 | 100 to 1000 nM
C[C@@H]1[C@H](NC(=O)c2ccc(C3CC3)cc2F)CCCN1c1cnc(C(N)=O)c(Nc2ccc(N3CCN(C)CC3)nc2)n1 | 1000 to 10000 nM
C[C@@H]1[C@H](NC(=O)c2cc3c(n2C)CC(C)(C)C3)CCCN1c1cnc(C(N)=O)c(Nc2cnn(C)c2)n1 | 100 to 1000 nM
C=CC(=O)N[C@@H]1CCCN(c2nnc(C(N)=O)c(Nc3ccc(C(C)C)cc3)n2)C1 | 100 to 1000 nM
COCCN(C)Cc1cc(Nc2nc(N3CCC[C@@H](NC(=O)c4ccc(C5CC5)cc4)[C@H]3C)cnc2C(N)=O)sn1 | 100 to 1000 nM
C[C@@H]1[C@H](NC(=O)c2ccc(C3CC3)cc2)CCCN1c1cnc(C(N)=O)c(Nc2cnn(CCN(C)C)c2)n1 | 1000 to 10000 nM

Here is the next item to consider.
INPUT: Complete the entry with IC50 for Cc1cc(Nc2nc(N3CCC[C@@H](n4ccc5cc(C6CC6)ccc5c4=O)C3)cnc2C(N)=O)sn1
OUTPUT: > 10000 nM
